# assayed_system: T1, Recombinant human Met ectodomain-Fc chimera protein (human, UniProt P08581 25-932)
# T1 construct: Hepatocyte growth factor receptor (Met), human, ectodomain; Captured through its Fc with a human antibody capture kit in a1 and a2; injected as analyte in a3; also called human Met extracellular domain; source: bought: Sino Biological Inc
# T1 sequence (P08581 25-932, change not shown): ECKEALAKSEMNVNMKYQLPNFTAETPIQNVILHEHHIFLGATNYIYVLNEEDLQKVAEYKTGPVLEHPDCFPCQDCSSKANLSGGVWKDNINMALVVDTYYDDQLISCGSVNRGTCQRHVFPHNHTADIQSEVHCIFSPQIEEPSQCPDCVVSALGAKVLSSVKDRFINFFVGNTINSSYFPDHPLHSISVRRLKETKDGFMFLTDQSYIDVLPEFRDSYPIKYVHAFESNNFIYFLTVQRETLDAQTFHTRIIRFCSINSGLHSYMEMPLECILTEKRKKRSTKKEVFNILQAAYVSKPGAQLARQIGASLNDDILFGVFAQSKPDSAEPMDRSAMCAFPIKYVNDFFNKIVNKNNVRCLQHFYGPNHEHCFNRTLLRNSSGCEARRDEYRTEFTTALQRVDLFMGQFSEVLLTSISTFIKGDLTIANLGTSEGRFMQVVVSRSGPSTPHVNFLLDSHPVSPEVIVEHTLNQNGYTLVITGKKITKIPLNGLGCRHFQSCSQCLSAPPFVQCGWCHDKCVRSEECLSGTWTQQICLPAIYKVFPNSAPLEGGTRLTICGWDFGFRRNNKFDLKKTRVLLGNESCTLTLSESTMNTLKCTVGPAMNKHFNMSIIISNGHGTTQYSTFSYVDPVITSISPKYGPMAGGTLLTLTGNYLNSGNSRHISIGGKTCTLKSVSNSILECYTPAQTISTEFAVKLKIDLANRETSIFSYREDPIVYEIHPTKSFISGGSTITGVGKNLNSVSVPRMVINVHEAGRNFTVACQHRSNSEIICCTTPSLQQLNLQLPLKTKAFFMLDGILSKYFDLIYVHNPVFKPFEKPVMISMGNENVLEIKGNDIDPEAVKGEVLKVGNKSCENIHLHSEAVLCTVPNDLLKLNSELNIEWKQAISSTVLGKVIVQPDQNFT
# test_description: SPR; Biacore T200; human Met ectodomain-Fc captured (1,200-1,600 RU) on a CM5 chip with a human antibody capture kit; monomeric macrocycle or linear peptide injected at 30 µl/min, single-cycle kinetics; HBS EP+ (10 mM Hepes pH 7.4, 150 mM NaCl, 3 mM EDTA, 0.05% Surfactant P20) with 0.1% DMSO; 1:1 binding model
# run_conditions: both partners purified
endpoint_label: pKd
Numbers only, as −log10 of the molar value.

Query: GET /values?readout=pKd&item= Ac-YISWNEFNSPNWRFITAG-NH2 (linear form of aML5, Ala in place of the ring-closing Cys; also called linear counterpart of aML5; source: synthetic peptide) [aML5-Lin]
Response: 5.89
